Data credit: the supplement of paper PMC10981050

System: OCI-AML2;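 also: after 48 h exposure read by CellTiter-Glo luminescence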
METHOD DESCRIPTION: cell viability relative to vehicle control; higher = less cytotoxic
MEASUREMENT PARAMETERS: 10 µM; SRSF2 genotype: wt/wt
Kindly state cell viability for each of the entries shown.

CCOc1cc2ncc(C#N)c(Nc3ccc(F)c(Cl)c3)c2cc1NC(=O)/C=C/CN(C)C [Pelitinib (EKB-569)]; 0.46%
CNC(=O)c1ccccc1Oc1nc(Nc2cc(OC)c(OC)c(OC)c2)ncc1Br; 19%
Cc1cc(C)c(S(=O)(=O)n2cc(C)cc2C)c(C)c1; 102%
COc1ccc2c(c1)c(C1=C(c3c[nH]c4ccccc34)C(=O)NC1=O)cn2CCCN(C)C; 49.9%
CN1C(=O)[C@@H](NC(=O)c2n[nH]c(Cc3ccccc3)n2)COc2ccccc21; 106%
Cc1cccc(-c2[nH]c(C(C)(C)C)nc2-c2ccc3c(c2)OCO3)n1; 50%

Give one value of cell viability per listed molecule.
1. CC1(C)O[C@@H]2C[C@H]3[C@@H]4CCC5=CC(=O)C=C[C@]5(C)[C@H]4[C@@H](O)C[C@]3(C)[C@]2(C(=O)CO)O1 [Desonide]
2. CCCCCCCCCCCC[N+](C)(C)CCOc1ccccc1 [Domiphen Bromide]
3. CCC1=C(C)CN(C(=O)NCCc2ccc(S(=O)(=O)NC(=O)N[C@H]3CC[C@H](C)CC3)cc2)C1=O [Glimepiride]
4. NC(=O)c1ccc(-c2nc(-c3ccccn3)c(-c3ccc4c(c3)OCO4)[nH]2)cc1

Result:
["121%", "0.43%", "105%", "98.3%"]
